- System: OVCAR-3 ovarian
- Assay name: NCI tumour cell line growth inhibition, 48 h
Test readout: TGI

Here's what some known entries look like.
{"Compound": "CC(C)(C)OC(=O)NCCNCCNc1ccccc1", "TGI": "> 100 µM"}
{"Compound": "C=C1C(=O)O[C@H]2[C@H]1CC/C(COC(=O)C(C)c1ccc(CC(C)C)cc1)=C\\CC[C@@]1(C)O[C@@H]21 (stereo not given in full)", "TGI": "2.87 µM"}
{"Compound": "OC(c1ccc2c(c1)OCO2)c1ccc2c(c1)OCO2", "TGI": "> 100 µM"}
{"Compound": "C=C(C(=C)N1N=NC2C3CCC(C3)C21)N1N=NC2C3CCC(C3)C21 (stereo not given)", "TGI": "> 100 µM"}
{"Compound": "CCOC(=O)c1cc(-c2ccccc2)[nH]c1N/N=C/c1ccc(Cl)cc1", "TGI": "> 100 µM"}
{"Compound": "CN(C)c1snc2c1c(=O)n(C)c(=O)n2C", "TGI": "> 100 µM"}

Dear colleague, I am looking for the recorded TGI of the following compound: CSc1nc(C)c(CCOC(C)=O)c(Cl)n1 > 100 µM

Moving on to CCNC12CCC(C1)C(C)(C)C2=O (stereo not given) > 100 µM

// next record COc1cc(C2=N/C(=C/c3cccs3)C(=O)O2)cc(OC)c1OC > 100 µM

For COC(=O)C(C(=O)C(=O)Nc1cccc([N+](=O)[O-])c1)c1nc2ccc([N+](=O)[O-])cc2[nH]c1=O (stereo not given) then? > 100 µM

What do you get for CC(=O)OC[C@@]12Cc3ccc(C)c(O)c3[C@]1(C)[C@@H](OC(C)=O)[C@]1(O)[C@H]([C@@H](OC(=O)c3ccccc3)[C@@H](C)[C@H]1OC(C)=O)[C@H]2OC(C)=O ? > 50 µM

Continue with CCN(CC)C(=S)SC(C(=O)Nc1nnc(-c2ccccc2)o1)c1ccccc1 (stereo not given) 41.8 µM

Next compound up: CC1CN(c2cc3c(cc2F)c(=O)c(C(=O)O)cn3-c2ccc(F)cn2)CC(C)N1 (stereo not given) > 100 µM

Next: C[C@]12CC[C@@H]3c4ccc(O)cc4CC[C@H]3[C@@H]1CC[C@@H]2OC(=O)CCc1ccccc1 61.6 µM

Further, for COc1cc2c(cc1O)C1(Cc3ccc4c(c3C1=O)OCO4)N(C)CC2 (stereo not given) ? > 100 µM

# iterate: COC(=O)C(COC(=O)/C=C/c1ccc(OC(C)=O)c(OC(C)=O)c1)NC(=O)/C=C/c1ccc(OC(C)=O)c(OC(C)=O)c1 (stereo not given) 33.7 µM

Would you mind doing CC(C)=CCC/C(C)=C\CCC1(C)OC(=O)C2CC21 (stereo not given) as well? > 100 µM

Repeat for the following compound: CC1=C(/C=C/C(C)=C/C=C/C(C)=C/C(=O)O)C(C)(C)CCC1 63.9 µM

# repeat for COc1ccc2oc(C(=O)O)c3c2c1CCC3CCC(=O)O (stereo not given) > 1 µM

Cool, now COC(=O)C(Br)C1CCc2ccccc21 (stereo not given) > 100 µM

* * *

- Tested on: SF-539 CNS
- Assay name: NCI tumour cell line growth inhibition, 48 h
Test readout: TGI

{"Compound": "COc1ccc2c(c1)C(=O)/C(=C/c1ccc([N+](=O)[O-])o1)O2", "Value observed": "3.91 µM"}
{"Compound": "CN(C)c1snc2c1c(=O)n(C)c(=O)n2C", "Value observed": "> 100 µM"}
{"Compound": "CC1(C)N=C(N)N=C(N)N1c1cccc(C(=O)Nc2ccc(S(=O)(=O)F)cc2)c1", "Value observed": "> 100 µM"}
{"Compound": "C=C(C(=C)N1N=NC2C3CCC(C3)C21)N1N=NC2C3CCC(C3)C21 (stereo not given)", "Value observed": "> 100 µM"}
{"Compound": "O=C1c2ccccc2C(=O)C1C(c1ccc(F)cc1)C1C(=O)c2ccccc2C1=O", "Value observed": "> 100 µM"}

Give the measured TGI of COc1cc2c(cc1OC)C(=O)C1(C2)[C@H](c2ccccc2)C2C(=O)c3cc(OC)c(OC)cc3C2[C@H]1c1ccccc1 (stereo not given in full) . > 100 µM

Lookup COc1cccc(Nc2nc(N)nc(N)c2N)c1 > 100 µM

Then COc1cc(C2=N/C(=C/c3cccs3)C(=O)O2)cc(OC)c1OC ? > 100 µM

Follow-up entry: CO/N=C\c1cc(O)c(O)c(/C=N/OC)c1 > 100 µM

For CCN(CCCl)c1cc(CN(C)C)cc(NC(=O)C23CCC(C(=O)Nc4cc(CN(C)C)cc(N(CC)CCCl)c4)(CC2)CC3)c1 then? 2.15 µM

* * *

- Test system: HS 578T breast
- Assay name: NCI tumour cell line growth inhibition, 48 h
Test readout: TGI (µM)
The figure you give is taken to be in µM; do not add the unit.

{"Compound": "C[N+](C)(C)CC(=O)N/N=C(\\C(=O)NC1=C(Cl)C(=O)c2ccccc2C1=O)C(C#N)c1nc(-c2ccc([N+](=O)[O-])cc2)cs1 (stereo not drawn)", "Test readout": "TGI", "Value observed": 40.6}
{"Compound": "Clc1ccccc1CNc1c2ccccc2nc2ccccc12", "Test readout": "TGI", "Value observed": 18.1}
{"Compound": "Cc1cc2c(C(N)=O)c(N)n(-c3c(C)ccc(O)c3C)c2nc1C", "Test readout": "TGI", "Value observed": 7.18}

Next item in the queue.
Fill in: TGI of O=C1C=CC(=O)c2c(O)c(Br)c(Br)c(O)c21 is ___ 69.1

* * *

- Test system: CCRF-CEM leukemia
- Assay name: NCI tumour cell line growth inhibition, 48 h
Test readout: TGI

{"Compound": "CC(C)(C)OC(=O)NCCCC(=O)NC1(c2cc3ccccc3s2)CCCCC1", "TGI": "28.4 µM"}
{"Compound": "O=c1[nH]nc(-c2ccccc2)n1/N=C/c1ccccc1Cl", "TGI": "> 100 µM"}
{"Compound": "CCOC(=O)C(CC/C=C\\c1ccccc1)N1CCC[C@H]1C(=O)OC (stereo not given in full)", "TGI": "> 100 µM"}
{"Compound": "COc1ccc2c3c(c(C(=O)c4ccccc4)oc13)CCC2", "TGI": "> 100 µM"}

Then there is this compound:
Which TGI value is on record for CCCCCCCCCCCCCCCCCCNc1nc(=O)n(C2CC(O)C(COP(=O)(O)OCC3OC(n4ccc(N)nc4=O)C(O)C3O)O2)cc1F (stereo not given) ? > 100 µM

* * *

- Tested on: PC-3 prostate
- Assay name: NCI tumour cell line growth inhibition, 48 h
Test readout: TGI

{"Molecule": "COc1cc(/C=C\\c2nnc(/C=C\\c3ccc(O)c(OC)c3)s2)ccc1O", "Test readout": "TGI", "Value observed": "> 64.3 µM"}

Which measured TGI value corresponds to Oc1cc(N2CCCC2)ccc1/C=N/N1C(=S)N(c2ccccc2)C(=Nc2ccccc2)C1=Nc1ccccc1 ? > 100 µM

Can you handle CC(=O)O[C@H]1[C@@H]2OC(=O)C(CSc3ccccc3)[C@@H]2C[C@H]2O[C@]2(C)CC/C=C(\C)CCC[C@@H]1C (stereo not given in full) next? 11.1 µM

Continue with O=c1c(-c2ccccc2F)coc2cc(F)ccc12 > 100 µM

And then COc1ccc(NC(C)=O)c(C(O)CCNC(C)=O)c1 (stereo not given) , what is it? > 100 µM

What about this molecule? CO/N=C(\COc1ccc2oc(-c3ccccc3)cc(=O)c2c1)c1ccc(OC)cc1 98.5 µM

* * *

- Tested on: IGROV1 ovarian
- Assay name: NCI tumour cell line growth inhibition, 48 h
Test readout: GI50

// solved cases for GI50 follow
{"Smiles entry": "Cc1cc(N2CCOCC2)nc(N(CCCNc2ccnc3cc(Cl)ccc23)Cc2ccco2)n1", "Test readout": "GI50", "Value observed": "2.18 µM"}
{"Smiles entry": "Cc1cc(-c2ccccn2)cc(C)c1/C=C/c1cncc(-c2nn[nH]n2)c1", "Test readout": "GI50", "Value observed": "> 25 µM"}
{"Smiles entry": "[N-]=[N+]=NCCCn1c2c(c3ccc([N+](=O)[O-])cc3c1=O)C(=O)c1cc(F)ccc1-2", "Test readout": "GI50", "Value observed": "2.3 µM"}
{"Smiles entry": "NS(=O)(=O)NCCNc1nonc1C(=Nc1ccc(F)c(Br)c1)NO", "Test readout": "GI50", "Value observed": "52.3 µM"}

Could you now look at the following compound, please?
So what does the record say about GI50 for CCOC(=O)C#Cc1c(C(=O)OCC)nnn1Cc1ccc([N+](=O)[O-])cc1 ? 11.9 µM

* * *

- Tested on: COLO 205 colon
- Assay name: NCI tumour cell line growth inhibition, 48 h; in the data active = GI50 below about 0.43 µM; inactive = the rest
Respond only with the outcome that fits, drawn from 1 (active), -1 (inactive)

{"Molecule": "CC1(C)NCCC[C@]2(C)[C@H]3CC[C@@H]4[C@H]5[C@H](C(=O)/C=C/c6ccccn6)CC[C@]5(CO)CC[C@@]4(C)[C@]3(C)CC[C@@H]12", "Classification": -1}
{"Molecule": "N#Cc1cc(S(=O)(=O)Nc2nnc(-c3ccccc3)c(-c3ccccc3)n2)c(SCc2ccccc2)cc1Cl", "Classification": -1}
{"Molecule": "C/C(O)=C(\\C#N)C(=O)Nc1ccc(C(F)(F)F)cc1", "Classification": -1}
{"Molecule": "CCOC(=O)C#Cc1c(C(=O)OCC)nnn1Cc1ccc([N+](=O)[O-])cc1", "Classification": -1}
{"Molecule": "CN(C)CCNc1c2ccccc2nc2oc3ccccc3c12", "Classification": -1}

Status in this test for CO/N=C(\COc1ccc2oc(-c3ccccc3)cc(=O)c2c1)c1ccc(OC)cc1 ? -1

How about this molecule: Cc1cc2c(C(N)=O)c(N)n(-c3c(C)ccc(O)c3C)c2nc1C -1

Here is the next molecule: O=C(/C=C/C12c3ccccc3C(c3ccccc31)C1C(=O)NC(=O)C12)c1ccc(F)cc1 (centres undefined) -1

Input COC(=O)C12OCC34C(CC5C(C)C6=CC(=O)OC6=CC5(C)C3C(O)C1O)OC(=O)C(O)C24 (centres undefined) 1
